Reference source: patent US7388017B2

Target: HCV NS3 protease (Hepatitis C virus genotype 1a)
Construct: more particularly HCV NS3 proteases
Sequence (P27958 1027-1208): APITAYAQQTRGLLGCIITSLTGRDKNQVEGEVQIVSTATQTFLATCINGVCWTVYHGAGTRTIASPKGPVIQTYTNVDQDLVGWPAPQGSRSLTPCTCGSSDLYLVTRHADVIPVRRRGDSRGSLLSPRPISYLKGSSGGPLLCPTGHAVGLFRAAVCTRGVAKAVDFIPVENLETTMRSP
Assay: Enzyme inhibition of HCV NS3 serine protease (cleavage of peptide substrate / EDVV AbuC-p-nitroanilide, with or without NS4A)
Format: biochemical
Conditions: Enzyme inhibition data; Ki from rate vs [inhibitor] plots, Morrison tight binding competitive inhibition fit; 30 C, pH 7.8; read-out: Ki
Starred links: 1 amine or outer side, 2 acyl side, 3 side chain; linkers in the order of their positions; H or OH if unused. Non-standard residues stand in square brackets, D forms with d. Residues, ends and D or L forms follow the SMILES beside them. Groups on a side chain read outwards from the residue. *: point of attachment. Pyrazinecarbonyl = O=C(c1cnccn1)*; pNA = O=[N+]([O-])c1ccc(N*)cc1; 3Pal = N[CH](Cc1cccnc1)C(=O)O; Hyp = O=C(O)[CH]1C[CH](O)CN1; Abu = CC[CH](N)C(=O)O; CO = O=C([*:1])[*:2]; X47 = COc1ccccc1N*; Bn = c1ccc(C*)cc1
measured_parameter: Ki

Known results for compounds:
compound	Ki
CCC(C=O)NC(=O)C1CC(OCc2ccccc2)CN1C(=O)C(NC(=O)C(Cc1cccnc1)NC(=O)c1cnccn1)C(C)C (stereo not shown) [Compound 127] (Pyrazinecarbonyl-[3Pal]V[Hyp](Bn)[Abu]-aldehyde; configuration not given here)	> 100 µM
CCC(C=O)NC(=O)C1CC(OC(=O)Nc2ccccc2OC)CN1C(=O)C(NC(=O)C(NC(=O)c1cnccn1)C(C)C)C(C)C (stereo not shown) [Compound 43] (Pyrazinecarbonyl-VV[Hyp]([CO-X47])[Abu]-aldehyde; configuration not given here)	1 to 100 µM

In: Would you kindly share the measured Ki for CCC(NC(=O)C1CC(OCc2ccccc2)CN1C(=O)C(NC(=O)C(NC(=O)c1cnccn1)C(C)C)C(C)C)C(=O)C(F)(F)C(F)(F)F (stereo not shown) ?
Out: 1 to 100 µM

In: Would you kindly share the measured Ki for CCC(C=O)NC(=O)C1CC(OC(=O)Nc2ccc([N+](=O)[O-])cc2)CN1C(=O)C(NC(=O)C(NC(=O)c1cnccn1)C(C)C)C(C)C (stereo not shown) [Compound 39] (Pyrazinecarbonyl-VV[Hyp]([CO-pNA])[Abu]-aldehyde; configuration not given here) ?
Out: 1 to 100 µM

---

Target: HCV NS3 protease (Hepatitis C virus genotype 1a)
Construct: more particularly HCV NS3 proteases
Assay: Enzyme inhibition of HCV NS3 serine protease (cleavage of peptide substrate / EDVV AbuC-p-nitroanilide, with or without NS4A)
Type: biochemical
Conditions: Enzyme inhibition data; Ki from rate vs [inhibitor] plots, Morrison tight binding competitive inhibition fit; 30 C, pH 7.8; read-out: Ki
Experimental: Cleavage reactions were quenched by the addition of an equal volume of a mixture of 10% TFA:acetonitrile (1:1) and activity was assessed on a reversed phase HPLC column (Rainin C18 Microsorb-MV, […], 4.6×250 mm; 0-50% acetonitrile, 0.1% TFA@ 3.33% min) using a Hewlett Packard 1050 instrument with auto-injection and diode array detection at 210 nm and 280 nm (where appropriate). Peptide elution fragments were collected and identified by mass spectrometry and N-terminal sequence analysis. […]
Starred links: 1 amine or outer side, 2 acyl side, 3 side chain; linkers in the order of their positions; H or OH if unused. Non-standard residues stand in square brackets, D forms with d. Residues, ends and D or L forms follow the SMILES beside them. Groups on a side chain read outwards from the residue. ξ: configuration not given here. *: point of attachment. ξ(3-Amino-2-oxopentanoyl) = CCC(N[*:1])C(=O)C(=O)[*:2]; NH(1,3-benzodioxol-5-yl) = c1cc2c(cc1N*)OCO2; Pyrazinecarbonyl = O=C(c1cnccn1)*; NH(4-picolyl) = c1cc(CN*)ccn1; Hyp = O=C(O)[CH]1C[CH](O)CN1; X40 = CC(C)(C)c1nc(C*)no1; X14 = Clc1ccc(N*)cc1Cl; X42 = Clc1cccc(N*)c1Cl; Abu = CC[CH](N)C(=O)O; CO = O=C([*:1])[*:2]
measured_parameter: Ki

Known results for molecules:
molecule	Ki
CCC(C=O)NC(=O)C1CC(OC(=O)Nc2ccc(Cl)c(Cl)c2)CN1C(=O)C(NC(=O)C(NC(=O)c1cnccn1)C(C)C)C(C)C (stereo not drawn) [Compound 46] (Pyrazinecarbonyl-VV[Hyp]([CO-X14])[Abu]-aldehyde; configuration not given here)	1 to 100 µM
CCC(NC(=O)C(CC(C)C)NC(=O)C(NC(=O)C(NC(=O)C(CC(=O)O)NC(=O)C(CCC(=O)O)NC(C)=O)C(C)C)C(C)C)C(=O)C(=O)NCc1ccncc1 (stereo not drawn) [Compound 107] (Ac-EDVVL[ξ(3-Amino-2-oxopentanoyl)]-{NH(4-picolyl)}; configuration not given here)	< 1 µM
CCC(C=O)NC(=O)C1CC(OCc2noc(C(C)(C)C)n2)CN1C(=O)C(NC(=O)C(NC(=O)c1cnccn1)C(C)C)C(C)C (stereo not drawn) [Compound 6] (Pyrazinecarbonyl-VV[Hyp](X40)[Abu]-aldehyde; configuration not given here)	1 to 100 µM
CCC(C=O)NC(=O)C1CC(NC(=O)NCc2ccccc2)CN1C(=O)C(NC(=O)C(NC(=O)c1cnccn1)C(C)C)C(C)C (stereo not drawn) [Compound 58]	1 to 100 µM
CCC(C=O)NC(=O)C1CC(OCc2ccccc2)CN1C(=O)C(NC(=O)c1nccc2ccccc12)C(C)C (stereo not drawn) [Compound 158]	1 to 100 µM
CCC(C=O)NC(=O)C1CC(OC(=O)Nc2cccc(Cl)c2Cl)CN1C(=O)C(NC(=O)C(NC(=O)c1cnccn1)C(C)C)C(C)C (stereo not drawn) [Compound 31] (Pyrazinecarbonyl-VV[Hyp]([CO-X42])[Abu]-aldehyde; configuration not given here)	1 to 100 µM

In: Would you kindly share the measured Ki for CCC(C=O)NC(=O)C1CC(OC(=O)Nc2ccc3c(c2)OCO3)CN1C(=O)C(NC(=O)C(NC(=O)c1cnccn1)C(C)C)C(C)C (stereo not drawn) [Compound 44] (Pyrazinecarbonyl-VV[Hyp]([CO-NH(1,3-benzodioxol-5-yl)])[Abu]-aldehyde; configuration not given here) ?
Out: 1 to 100 µM

In: Would you kindly share the measured Ki for CCC(NC(=O)C1CC(OCc2ccccc2)CN1C(=O)C(NC(=O)C(NC(=O)c1cnccn1)C(C)C)C(C)C)C(=O)C(=O)NCCc1ccccc1 (stereo not drawn) [Compound 79] ?
Out: 1 to 100 µM

In: Would you kindly share the measured Ki for CCC(C=O)NC(=O)C1CC(OCc2ccccc2)CN1C(=O)C(NC(=O)CCC(=O)c1ccccc1)C(C)C (stereo not drawn) [Compound 170] ?
Out: > 100 µM
